# System: SK-MEL-28
# Run Description: Antitumor activity against human skin melanoma […] cells
# Format: functional, cell-based
pIC50: −log10 of the molar value. Starred links: 1 amine or outer side, 2 acyl side, 3 side chain; linkers in the order of their positions; H or OH if unused. Positions of bridges follow the written chain, without caps; N, C: chain ends. Non-standard residues stand in square brackets, D forms with d. Residues, ends and D or L forms follow the SMILES beside them. Chains are numbered I, II in the order given. Actinocin(1to9) = Cc1c2oc3c(C)ccc(C(=O)[*:2])c3nc-2c(C(=O)[*:1])c(N)c1=O; NMeV = CN[C@H](C(=O)O)C(C)C; Sar = CNCC(=O)O
Quick reference: pIC50 of the listed items.

{"Compound": "O=c1cc2oc3ccccc3nc-2c2cccnc12", "Target": "SK-MEL-28", "pIC50": 6.68}
{"Compound": "Cc1c2oc3c(C)ccc(C(=O)N[C@@H]4C(=O)N[C@H](C(C)C)C(=O)N5CCC[C@H]5C(=O)N(C)CC(=O)N(C)[C@@H](C(C)C)C(=O)O[C@@H]4C)c3nc-2c(C(=O)N[C@@H]2C(=O)N[C@H](C(C)C)C(=O)N3CCC[C@H]3C(=O)N(C)CC(=O)N(C)[C@@H](C(C)C)C(=O)O[C@@H]2C)c(N)c1=O [DACTINOMYCIN] (I: T[dV]P[Sar][NMeV] / II: T[dV]P[Sar][NMeV]; ester I:1-I:C, II:1-II:C; linker I:N-II:N via Actinocin(1to9))", "Target": "SK-MEL-28", "pIC50": 8.70}
{"Compound": "O=c1cc2sc3ccccc3nc-2c2cccnc12", "Target": "SK-MEL-28", "pIC50": 6.09}
{"Compound": "COc1cccc2c1C(=O)c1c(O)c3c(c(O)c1C2=O)C[C@@](O)(C(=O)CO)C[C@@H]3O[C@H]1C[C@H](N)[C@H](O)[C@H](C)O1 [DOXORUBICIN]", "Target": "SK-MEL-28", "pIC50": 7.22}

* * *

# Tested on: MOLT-4
# Run Description: Antitumor activity against human acute T-lymphoblastic leukemia MOLT-4 cells
# Format: functional, cell-based
Starred links: 1 amine or outer side, 2 acyl side, 3 side chain; linkers in the order of their positions; H or OH if unused. Positions of bridges follow the written chain, without caps; N, C: chain ends. Non-standard residues stand in square brackets, D forms with d. Residues, ends and D or L forms follow the SMILES beside them. Chains are numbered I, II in the order given. Actinocin(1to9) = Cc1c2oc3c(C)ccc(C(=O)[*:2])c3nc-2c(C(=O)[*:1])c(N)c1=O; NMeV = CN[C@H](C(=O)O)C(C)C; Sar = CNCC(=O)O

{"Compound": "O=c1cc2sc3ccccc3nc-2c2cccnc12", "IC50, nM": 140}
{"Compound": "O=c1cc2oc3ccccc3nc-2c2cccnc12", "IC50, nM": 40}
{"Compound": "Cc1c2oc3c(C)ccc(C(=O)N[C@@H]4C(=O)N[C@H](C(C)C)C(=O)N5CCC[C@H]5C(=O)N(C)CC(=O)N(C)[C@@H](C(C)C)C(=O)O[C@@H]4C)c3nc-2c(C(=O)N[C@@H]2C(=O)N[C@H](C(C)C)C(=O)N3CCC[C@H]3C(=O)N(C)CC(=O)N(C)[C@@H](C(C)C)C(=O)O[C@@H]2C)c(N)c1=O [DACTINOMYCIN] (I: T[dV]P[Sar][NMeV] / II: T[dV]P[Sar][NMeV]; ester I:1-I:C, II:1-II:C; linker I:N-II:N via Actinocin(1to9))", "IC50, nM": 1}

* * *

# Tested on: HEp-2
# Run Description: Compound concentration required to reduce the cell proliferation of larynx carcinoma cells by 50%, using MTT method.
# Format: functional, cell-based
# Test Conditions: Homo sapiens
pIC50: −log10 of the molar value.
Measurement Kind: pIC50

{"Structure": "CC(=O)c1c2nc3c(C(C)=O)cccc3oc-2cc(=O)c1N", "Assay Result": 5.82}
{"Structure": "O=c1ccc2nc3ccccc3oc-2c1", "Assay Result": 4.85}
{"Structure": "CC(=O)Nc1cc2nc3ccccc3oc-2cc1=O", "Assay Result": 5.85}

* * *

# Test system: HeLa
# Run Description: Compound concentration required to reduce the cell proliferation of cervix carcinoma Hela cells by 50%, using MTT method
# Type: functional, cell-based
# Test Conditions: Homo sapiens

{"Structure": "Nc1cc2nc3ccccc3oc-2cc1=O", "Target": "HeLa", "IC50 / µM": 2.7}

* * *

# Test system: MT4
# Run Description: Compound concentration required to reduce the cell proliferation of human CD4+T cells by 50%, using MTT method
# Format: functional, cell-based
pIC50: −log10 of the molar value.

{"Structure": "Nc1cc2nc3ccccc3oc-2cc1=O", "Target": "MT4", "pIC50": 5.92}

* * *

# Tested on: MCF7
# Run Description: Antitumor activity against human breast adenocarcinoma MCF-7 cells
# Assay type: functional, cell-based
Starred links: 1 amine or outer side, 2 acyl side, 3 side chain; linkers in the order of their positions; H or OH if unused. Positions of bridges follow the written chain, without caps; N, C: chain ends. Non-standard residues stand in square brackets, D forms with d. Residues, ends and D or L forms follow the SMILES beside them. Chains are numbered I, II in the order given. Actinocin(1to9) = Cc1c2oc3c(C)ccc(C(=O)[*:2])c3nc-2c(C(=O)[*:1])c(N)c1=O; NMeV = CN[C@H](C(=O)O)C(C)C; Sar = CNCC(=O)O
As shown below, each of these compounds has a reported IC50 value.

{"Compound": "Cc1c2oc3c(C)ccc(C(=O)N[C@@H]4C(=O)N[C@H](C(C)C)C(=O)N5CCC[C@H]5C(=O)N(C)CC(=O)N(C)[C@@H](C(C)C)C(=O)O[C@@H]4C)c3nc-2c(C(=O)N[C@@H]2C(=O)N[C@H](C(C)C)C(=O)N3CCC[C@H]3C(=O)N(C)CC(=O)N(C)[C@@H](C(C)C)C(=O)O[C@@H]2C)c(N)c1=O [DACTINOMYCIN] (I: T[dV]P[Sar][NMeV] / II: T[dV]P[Sar][NMeV]; ester I:1-I:C, II:1-II:C; linker I:N-II:N via Actinocin(1to9))", "Target": "MCF7", "IC50 (nM)": 6}
{"Compound": "O=c1cc2oc3ccccc3nc-2c2cccnc12", "Target": "MCF7", "IC50 (nM)": 230}
{"Compound": "O=c1cc2sc3ccccc3nc-2c2cccnc12", "Target": "MCF7", "IC50 (nM)": 650}
